What pEC50 was measured for each of the following?
target: T1, human αvβ5 expressed on BaF3 cells (stably transfected with human αv and β5 subunits) (human, UniProt P06756 31-1048; P18084 24-799); assay: FACS on αvβ5-BaF3 cells, unpurified antibody
T1 construct: also called αvβ5-BaF3; BaF3-hu αvβ5
T1 sequence (P06756 31-1048 limits assumed, chain 1 of 2): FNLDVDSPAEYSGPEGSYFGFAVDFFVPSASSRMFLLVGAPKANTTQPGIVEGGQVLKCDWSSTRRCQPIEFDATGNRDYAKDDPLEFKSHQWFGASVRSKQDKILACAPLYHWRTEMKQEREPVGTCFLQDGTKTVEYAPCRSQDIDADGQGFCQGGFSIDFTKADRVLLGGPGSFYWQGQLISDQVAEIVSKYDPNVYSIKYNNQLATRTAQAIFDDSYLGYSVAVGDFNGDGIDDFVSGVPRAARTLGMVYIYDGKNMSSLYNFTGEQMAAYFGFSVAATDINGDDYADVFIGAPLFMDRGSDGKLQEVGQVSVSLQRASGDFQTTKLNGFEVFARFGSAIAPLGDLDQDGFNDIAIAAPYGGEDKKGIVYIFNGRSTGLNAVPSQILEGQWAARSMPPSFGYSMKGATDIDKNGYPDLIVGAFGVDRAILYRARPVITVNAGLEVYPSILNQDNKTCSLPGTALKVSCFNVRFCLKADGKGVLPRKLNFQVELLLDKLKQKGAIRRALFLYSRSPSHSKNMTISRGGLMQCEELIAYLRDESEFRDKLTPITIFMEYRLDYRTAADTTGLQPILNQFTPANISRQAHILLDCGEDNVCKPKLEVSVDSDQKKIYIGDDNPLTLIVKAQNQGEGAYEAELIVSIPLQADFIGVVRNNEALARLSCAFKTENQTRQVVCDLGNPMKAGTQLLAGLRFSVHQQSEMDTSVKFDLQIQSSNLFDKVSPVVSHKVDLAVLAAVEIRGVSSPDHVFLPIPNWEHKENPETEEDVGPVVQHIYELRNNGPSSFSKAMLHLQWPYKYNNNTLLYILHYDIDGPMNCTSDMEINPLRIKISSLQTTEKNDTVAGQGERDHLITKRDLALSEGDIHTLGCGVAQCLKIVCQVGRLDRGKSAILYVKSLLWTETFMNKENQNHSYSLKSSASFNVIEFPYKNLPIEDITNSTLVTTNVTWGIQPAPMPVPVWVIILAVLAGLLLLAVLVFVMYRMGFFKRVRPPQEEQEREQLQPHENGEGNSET
T1 sequence (P18084 24-799 limits assumed, chain 2 of 2): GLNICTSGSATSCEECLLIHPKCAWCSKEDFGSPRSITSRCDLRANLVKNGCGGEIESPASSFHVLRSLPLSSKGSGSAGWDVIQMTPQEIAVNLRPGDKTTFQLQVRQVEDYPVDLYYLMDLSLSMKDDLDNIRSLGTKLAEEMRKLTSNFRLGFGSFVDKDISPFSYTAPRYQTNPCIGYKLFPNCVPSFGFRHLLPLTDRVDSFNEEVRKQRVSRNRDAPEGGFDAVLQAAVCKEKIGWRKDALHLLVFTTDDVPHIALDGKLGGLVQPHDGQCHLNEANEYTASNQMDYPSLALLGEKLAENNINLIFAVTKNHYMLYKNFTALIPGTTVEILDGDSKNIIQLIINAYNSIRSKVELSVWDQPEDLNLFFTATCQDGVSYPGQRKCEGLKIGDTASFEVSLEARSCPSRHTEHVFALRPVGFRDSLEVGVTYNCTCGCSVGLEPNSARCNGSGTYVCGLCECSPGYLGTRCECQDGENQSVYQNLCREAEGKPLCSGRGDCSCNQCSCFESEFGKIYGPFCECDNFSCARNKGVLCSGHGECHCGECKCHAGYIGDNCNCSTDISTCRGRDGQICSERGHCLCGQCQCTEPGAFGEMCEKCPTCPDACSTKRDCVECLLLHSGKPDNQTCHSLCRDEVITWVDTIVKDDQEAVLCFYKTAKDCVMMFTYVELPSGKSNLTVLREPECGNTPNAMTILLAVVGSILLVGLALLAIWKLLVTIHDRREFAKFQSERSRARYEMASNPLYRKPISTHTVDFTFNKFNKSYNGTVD
One number for each entry, as −log10 of the molar value.

Provide pEC50 values for the following items, in order.
1. VH0/VL0 Agly-hIgG1(T299A) (antibody, V domains shown, also called H0/L0) VH: EVQLVESGGGLVKPGGSLRLSCAASGYTFTSYWMHWVRQAPGKGLEWVGAIYPGNSDTSYNQKFKGRFTISRDDSKNTLYLQMNSLKTEDTAVYYCTTTTYGYDWFAYWGQGTLVTVSS VL: DIQMTQSPSSVSASVGDRVTITCKSSQSVLYSSNQKNYLAWYQQKPGKAPKLLIYWASTRESGVPSRFSGSGSGTDFTLTISSLQPEDFATYYCHQYLSSLTFGQGTKVEIK
2. VH4/VL2 Agly-hIgG1(T299A) (antibody, V domains shown, also called H4/L2 (Agly-IgG1)) VH: EVQVVQSGGGLVKPGESLRLSCKASGYTFTSYWMHWVKQAPGKGLEWVGAIYPGNSDTSYNQKFKGKFTISADTSPNTAYLQMNSLKTEDTAVYYCTTTTYGYDWFAYWGQGTLVTVSS VL: NIQMTQSPSSLSASVGDRVTMSCKSSQSVLYSSNQKNYLAWYQQKPGKSPKLLIYWASTRESGVPDRFTGSGSGTDFTLTISSLQPEDFATYYCHQYLSSLTFGQGTKLEIK

A:
1: 5.95; 2: 6.81

Data credit: patent US20170362324A1
